Reference for the values: the supplement of paper PMC13380429

Tested on: Vero E6 infected with SARS-CoV-2
Assay: inhibition of SARS-CoV-2 cytopathic effect; higher = more antiviral protection, active = above 15
Settings: 833.33 nM; 48 h
Attribute: inhibition of SARS-CoV-2 cytopathic effect
Record the value in %, omitting the unit from your answer.

These solved cases illustrate the format of a correct answer.
                                   molecule                         tested_on  numeric_readout
0  COc1ccccc1N1CCN(CCN2C(=O)c3ccccc3C(C)(C)C2=O)CC1  Vero E6 infected with SARS-CoV-2             -0.3
1  CCOC(=O)N1c2ccc(C(F)(F)F)cc2[C@@H](N(Cc2cc(C(F)(F)F)cc(C(F)(F)F)c2)C(=O)OC)C[C@H]1CC  Vero E6 infected with SARS-CoV-2             1.09
2  Cc1cc(OCCCS(C)(=O)=O)cc(C)c1-c1cccc(COc2ccc3c(c2)OC[C@H]3CC(=O)O)c1  Vero E6 infected with SARS-CoV-2             3.74
3  c1ccc2c(-c3cnn4cc(-c5ccc(N6CCNCC6)cc5)cnc34)ccnc2c1  Vero E6 infected with SARS-CoV-2            -6.31

Which measured inhibition of SARS-CoV-2 cytopathic effect belongs to "CCOC(=O)N[C@@H]1CC[C@@H]2[C@@H](C1)C[C@H]1C(=O)O[C@H](C)[C@H]1[C@H]2/C=C/c1ccc(-c2cccc(F)c2)cn1" , tested on Vero E6 infected with SARS-CoV-2?
-0.44

Likewise for "O=C1NC(=O)C(c2ccccc2[N+](=O)[O-])=C1Nc1ccc(O)c(Cl)c1" ?
1.29

Likewise for "COc1cc(OC)cc(C(=O)NNC(=O)Nc2cccc3ccccc23)c1" ?
2.71

Likewise for "O=S1(=O)N[C@H]2CCCN2c2ccccc21" ?
-8.3

Likewise for NCC(CC(=O)O)c1ccccc1 (centres undefined) ?
-0.72

---

Tested on: Vero E6 infected with SARS-CoV-2
Experiment: inhibition of SARS-CoV-2 cytopathic effect; higher = more antiviral protection, active = above 15
Conditions: 100 nM; 48 h
Attribute: inhibition of SARS-CoV-2 cytopathic effect
Record the value in %, omitting the unit from your answer.

These solved cases illustrate the format of a correct answer.
                                   compound  readout_unit  numeric_readout
0            CC(=O)Oc1cccc(C(=O)O)c1OC(C)=O             %             2.59
1  CCc1c(C(=O)NCCc2ccc(N3CCCCC3)cc2)[nH]c2ccc(Cl)cc12             %             4.96
2  NS(=O)(=O)c1cc2c(cc1Cl)NC(CC1CCCC1)NS2(=O)=O (stereo not drawn) [cyclopenthiazide]             %            -0.67

Which measured inhibition of SARS-CoV-2 cytopathic effect belongs to Nc1ncnc2c1ncn2[C@@H]1O[C@H](CO)C[C@H]1O [cordycepin] , tested on Vero E6 infected with SARS-CoV-2?
1.03

---

Attribute: inhibition of SARS-CoV-2 cytopathic effect
Test system: Vero E6 infected with SARS-CoV-2
Assay: inhibition of SARS-CoV-2 cytopathic effect; higher = more antiviral protection, active = above 15
Conditions: 833.33 nM; 48 h
Record the value in %, omitting the unit from your answer.

>>> print(df.to_string())
                                   molecule  numeric_readout
0  CC1(C)S[C@@H]2[C@H](NC(=O)[C@H](NC(=O)N3CCNC3=O)c3ccccc3)C(=O)N2[C@H]1C(=O)O [azlocillin]            -1.76
1  N[C@H](C(=O)O)[C@H](O)c1ccc(O)c(O)c1 [droxidopa]             1.07

I would be grateful if you could share the reported inhibition of SARS-CoV-2 cytopathic effect for "CCc1cc2c(c(CC)n1)CCC(=O)N2Cc1ccc(-c2ccccc2-c2nnn[nH]2)cc1" .
-3.64

Likewise for NC(=O)c1ncn([C@@H]2O[C@H](CO)[C@@H](O)[C@H]2O)n1 [ribavirin] ?
-0.66

---

Attribute: SARS-CoV-2 infection rate
Test system: Vero E6 infected with SARS-CoV-2
Test: SARS-CoV-2 infection rate relative to infected DMSO; higher = more infection, active = 60 or less
Conditions: 24 h
Record the value in %, omitting the unit from your answer.

In [3]: df
Out[3]:
                                   compound  readout_unit  numeric_readout
0  CCCCCCCCCCCCCC(=O)[O-].CCCCCCCCCCCCCC(=O)[O-].N[C@@H]1CCCC[C@H]1N.[Pt+2] [miriplatin] (10 µM)             %              114
1  Nc1ccc(S(=O)(=O)Nc2ccnn2-c2ccccc2)cc1 [sulfaphenazole] (10 µM)             %             99.5

Moving on to the next compound.
I would be grateful if you could share the reported SARS-CoV-2 infection rate for O=C(O)c1cc(/N=N/c2ccc(S(=O)(=O)Nc3ccccn3)cc2)ccc1O [sulfasalazine] (10 µM) .
105

---

Tested on: Vero E6 infected with SARS-CoV-2
Assay: inhibition of SARS-CoV-2 cytopathic effect; higher = more antiviral protection, active = above 15
Conditions: 100 nM; 48 h
property_measured: inhibition of SARS-CoV-2 cytopathic effect (%)
Record the value in %, omitting the unit from your answer.

These solved cases illustrate the format of a correct answer.
molecule	numeric_readout
CN=c1nc(-c2ccccc2)n(-c2ccccc2)s1	-0.38
Cc1ccc(F)cc1C(=O)Nc1ccc(C(=O)N2Cc3cccn3Cc3ccccc32)c(Cl)c1 [lixivaptan]	2
NC1=N[C@@](c2cccc(-c3cncnc3)c2)(c2ccnc(C(F)F)c2)c2cccc(F)c21	-1.46
Cc1c(C)c2c(c(C)c1O)CCC(C)(C(=O)O)O2 (centres undefined) [trolox]	1.16
Oc1cccc(O)c1 [resorcinol]	-4.73

I would be grateful if you could share the reported inhibition of SARS-CoV-2 cytopathic effect for CCOC(=O)c1ccc(N(C)c2csc(-c3ccccc3)n2)cc1 [neuropathiazol] .
0.85

Likewise for "O=[N+]([O-])c1cn2c(n1)OC[C@@H](OCc1ccc(-c3ccc(OC(F)(F)F)cc3)nc1)C2" ?
-0.57

Likewise for "COc1ccc2[nH]c(C(=O)c3ccccc3)cc2c1" ?
0.36

Likewise for OC[C@H]1O[C@@H](n2cnc3c(NC4CCCC4)nc(Cl)nc32)[C@H](O)[C@@H]1O [2-chloro-N6-cyclopentyladenosine] ?
2.9

Likewise for O=C(O)/C=C(/CC(=O)O)C(=O)O [cis-aconitic-acid] ?
-3.45

Likewise for "CC(C)[C@H](C(=O)Nc1ccc(C(=O)NO)cc1)c1ccccc1" ?
-0.75

Likewise for "CN(c1ncccc1CNc1nc(Nc2ccc3c(c2)CC(=O)N3)ncc1C(F)(F)F)S(C)(=O)=O" ?
-1.3

Likewise for COc1cc2nccc(Oc3ccc(NC(=O)NC4CC4)c(Cl)c3)c2cc1C(N)=O [lenvatinib] ?
-0.32

Likewise for CCOc1ccc(C(=O)OCCN(CC)CC)cc1 [parethoxycaine] ?
-2.92

Likewise for CCCCCOc1ccc(-c2cc(-c3ccc(C(=O)N[C@H]4C[C@@H](O)[C@@H](O)NC(=O)[C@@H]5[C@@H](O)[C@@H](C)CN5C(=O)[C@H]([C@H](O)CC(N)=O)NC(=O)[C@H]([C@H](O)[C@@H](O)c5ccc(O)c(OS(=O)(=O)O)c5)NC(=O)[C@@H]5C[C@@H](O)CN5C(=O)[C@H]([C@@H](C)O)NC4=O)cc3)no2)cc1 [micafungin] ?
-5.9

---

System: Vero E6 infected with SARS-CoV-2
Experiment: inhibition of SARS-CoV-2 cytopathic effect; higher = more antiviral protection, active = above 15
Details: 833.33 nM; 48 h
Attribute: inhibition of SARS-CoV-2 cytopathic effect
Record the value in %, omitting the unit from your answer.

These solved cases illustrate the format of a correct answer.
compound	tested_on	numeric_readout
Clc1ccc(Nc2nnc(Cc3ccncc3)c3ccccc23)cc1	Vero E6 infected with SARS-CoV-2	3.79
N=C(NCCCCCCNC(=N)NC(=N)Nc1ccc(Cl)cc1)NC(=N)Nc1ccc(Cl)cc1	Vero E6 infected with SARS-CoV-2	2.74
C=C1/C(=C\C=C2/CCC[C@]3(C)[C@@H]([C@H](C)CCCC(C)C)CC[C@@H]23)C[C@@H](O)C[C@@H]1O	Vero E6 infected with SARS-CoV-2	0.53
COc1ccc(-c2coc3cc(O)ccc3c2=O)cc1	Vero E6 infected with SARS-CoV-2	-2.13

I would be grateful if you could share the reported inhibition of SARS-CoV-2 cytopathic effect for CC(C(=O)O)c1ccc2c(c1)Cc1cccnc1O2 (stereo unspecified) .
1.95

Likewise for "Nc1ccc(O)c(C(=O)O)c1" ?
-1.05

Likewise for CCC(=O)OCC(=O)[C@@]1(OC(=O)CC)[C@H](C)C[C@H]2[C@H]3[C@H]([C@@H](O)C[C@@]21C)[C@@]1(C)C=CC(=O)C=C1C[C@H]3Cl [alclometasone-dipropionate] ?
1.07
